assay: Stability in mouse liver microsomes at 4.6 uM in presence of NADPH after 60 mins by LC/MS-MS analysis; assay type: ADME, Microsome; settings: read-out: Stabilty
Provide the recorded remaining at 1 h, 4.6 µM for the entries that follow.
Give bare numbers, in %.

Below: 5 compounds and their reported remaining at 1 h, 4.6 µM.
O=C(NCCCCc1ccccc1)n1cc(-c2ccncc2)oc1=O :: 75
CN1CCC(c2cc(F)ccc2-c2cn(C(=O)NCCCCc3ccccc3)c(=O)o2)CC1 :: 51
O=C(NCCCCc1ccccc1)n1cc(-c2cccnc2)oc1=O :: 55
CCCCCNC(=O)n1cc(-c2ccc(F)cc2C2CCN(C)CC2)oc1=O :: 74
CN1CCC(c2cc(-c3cn(C(=O)NCCCCc4ccccc4)c(=O)o3)ccc2F)CC1 :: 70

From here, focus on the item given below.
Ask: Give the measured remaining at 1 h, 4.6 µM of COc1cc(-c2cn(C(=O)NCCCCc3ccccc3)c(=O)o2)ccc1F .
Reply: 74

* * *

assay: Half life in mouse plasma at 2 uM by LC/MS-MS analysis; type: ADME, cell-free
endpoint_label: t1/2 (h)
Give bare numbers, in h.

CCOCCNC(=O)n1cc(-c2ccccc2)oc1=O :: 1.33
CCCCCNC(=O)n1cc(-c2ccc(F)cc2C2CCN(C)CC2)oc1=O :: 1.83

Provide t1/2 for all items below, preserving their order.
1. O=C(NCCCCc1ccccc1)n1cc(-c2cnccn2)oc1=O
2. O=C(NCCCCc1ccccc1)n1cc(-c2cccnc2)oc1=O

Reply:
1. 0.667
2. 1

* * *

target: Acid ceramidase (Homo sapiens, UniProt Q13510); experiment: Inhibition of human acid ceramidase using Rbm14-12 fluorogenic substrate incubated for 1 hr by fluorescence assay; conditions: read-out: IC50
Sequence (Q13510 22-142 limits assumed): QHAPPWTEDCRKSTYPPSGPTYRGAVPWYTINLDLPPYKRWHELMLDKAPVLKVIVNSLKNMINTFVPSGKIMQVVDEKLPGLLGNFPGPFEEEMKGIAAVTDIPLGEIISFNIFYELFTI
Sequence (Q13510 143-395 limits assumed): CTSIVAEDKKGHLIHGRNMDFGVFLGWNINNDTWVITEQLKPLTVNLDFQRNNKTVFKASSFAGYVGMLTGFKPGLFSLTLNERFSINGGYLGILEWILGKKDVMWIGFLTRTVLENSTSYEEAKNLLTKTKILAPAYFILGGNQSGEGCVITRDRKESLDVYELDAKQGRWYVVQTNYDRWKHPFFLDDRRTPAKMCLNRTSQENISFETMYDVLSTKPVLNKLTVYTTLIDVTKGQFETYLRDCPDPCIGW
Decide using IC50 alone. Strictly below 300 nM: fulfilled. Equal to or above 300 nM: not fulfilled.

CN1CCC(c2cccc(-c3cn(C(=O)NCCCCc4ccccc4)c(=O)o3)c2)CC1 :: fulfilled
O=C(NCCCCc1ccccc1)n1cc(-c2ccc(F)cc2)oc1=O :: fulfilled
O=C(NCCCCc1ccccc1)n1cc(-c2cnc3ccccc3n2)oc1=O :: fulfilled

Ask: Say whether its IC50 is strictly beneath 300 nM. Entry: O=C(NCCCCc1ccccc1)n1cc(-c2ccccn2)oc1=O
Reply: fulfilled

Ask: Say whether its IC50 is strictly beneath 300 nM. Entry: CN1CCC(c2cc(-c3cn(C(=O)NCCCCc4ccccc4)c(=O)o3)ccc2F)CC1
Reply: not fulfilled

Ask: Say whether its IC50 is strictly beneath 300 nM. Entry: CC(C)CNC(=O)n1cc(-c2ccccc2)oc1=O
Reply: not fulfilled

* * *

assay: Half life in mouse liver microsomes at 4.6 uM in presence of NADPH by LC/MS-MS analysis; assay type: ADME, Microsome
Provide the recorded t1/2 for the entries that follow.
Numbers only, in h.

Below: 5 compounds and their reported t1/2.
CC(C)CNC(=O)n1cc(-c2ccccc2)oc1=O :: 0.833
O=C(NCCCCc1ccccc1)n1cc(-c2ccccn2)oc1=O :: 0.167
COc1cccc(-c2cn(C(=O)NCCCCc3ccccc3)c(=O)o2)c1 :: 0.5
O=C(NCCCCc1ccccc1)n1cc(-c2ccccc2)oc1=O :: 0.667
CN1CCC(c2cccc(-c3cn(C(=O)NCCCCc4ccccc4)c(=O)o3)c2)CC1 :: 0.5

Provide t1/2 for all items below, preserving their order.
1. O=C(NCCCCc1ccccc1)n1cc(-c2cnccn2)oc1=O
2. O=C(NCCCCc1ccccc1)n1cc(-c2ccc(F)cc2)oc1=O

Reply:
1: 1; 2: 1

* * *

test: Half life in mouse plasma at 2 uM by LC/MS-MS analysis; assay type: ADME, cell-free
endpoint_label: t1/2 (h)
Numbers only, in h.

Below: 2 compounds and their reported t1/2.
O=C(NCCCCc1ccccc1)n1cc(-c2ccncc2)oc1=O :: 0.5
O=C(NCCCCc1ccccc1)n1cc(-c2ccccn2)oc1=O :: 0.667

From here, focus on the item given below.
Ask: Give the measured t1/2 of O=C(NCCCCc1ccccc1)n1cc(-c2ccc(F)cc2)oc1=O .
Reply: 1.5

* * *

target: Acid ceramidase (Homo sapiens); assay: Inhibition of acid ceramidase in human HaCaT cell lysates; format: subcellular
endpoint_label: pIC50
Answers are plain numbers, as −log10 of the molar value.

Ask: Give the measured pIC50 of CCCCCCCCCCCCCC(=O)N[C@H](C)[C@@H](O)c1ccccc1 .
Reply: 3.30

* * *

assay: Half life in mouse plasma at 2 uM by LC/MS-MS analysis; type: ADME, cell-free
Provide the recorded t1/2 for the entries that follow.

Below: 2 compounds and their reported t1/2.
CN1CCC(c2cc(F)ccc2-c2cn(C(=O)NCCCCc3ccccc3)c(=O)o2)CC1 :: > 2 h
CN1CCC(c2cccc(-c3cn(C(=O)NCCCCc4ccccc4)c(=O)o3)c2)CC1 :: > 2 h

Provide t1/2 for all items below, preserving their order.
1. O=C(NCCCCc1ccccc1)n1cc(-c2ccccc2)oc1=O
2. COc1cccc(-c2cn(C(=O)NCCCCc3ccccc3)c(=O)o2)c1
3. COc1cc(-c2cn(C(=O)NCCCCc3ccccc3)c(=O)o2)ccc1F

Reply:
1: < 0.083 h; 2: > 2 h; 3: > 2 h

* * *

test: Half life in mouse liver microsomes at 4.6 uM in presence of NADPH by LC/MS-MS analysis; type: ADME, Microsome
Provide the recorded t1/2 for the entries that follow.

O=C(NCCCCc1ccccc1)n1cc(-c2cccnc2)oc1=O :: > 1 h

Provide t1/2 for all items below, preserving their order.
1. CN1CCC(c2cc(-c3cn(C(=O)NCCCCc4ccccc4)c(=O)o3)ccc2F)CC1
2. CCOCCNC(=O)n1cc(-c2ccccc2)oc1=O
3. CCCCCNC(=O)n1cc(-c2ccccc2)oc1=O
4. COc1cc(-c2cn(C(=O)NCCCCc3ccccc3)c(=O)o2)ccc1F
5. CN1CCC(c2cc(F)ccc2-c2cn(C(=O)NCCCCc3ccccc3)c(=O)o2)CC1
6. O=C(NCCCCc1ccccc1)n1cc(-c2ccncc2)oc1=O
7. CCCCCNC(=O)n1cc(-c2ccc(F)cc2C2CCN(C)CC2)oc1=O

Reply:
> 1 h
< 0.083 h
< 0.083 h
> 1 h
> 1 h
> 1 h
> 1 h

* * *

experiment: Half life in mouse plasma at 2 uM by LC/MS-MS analysis; format: ADME, cell-free
Provide the recorded t1/2 for the entries that follow.

CC(C)CNC(=O)n1cc(-c2ccccc2)oc1=O :: > 2 h

Provide t1/2 for all items below, preserving their order.
1. CCCCCNC(=O)n1cc(-c2ccccc2)oc1=O
2. CN1CCC(c2cc(-c3cn(C(=O)NCCCCc4ccccc4)c(=O)o3)ccc2F)CC1

Reply:
1: > 2 h; 2: > 2 h
